Assay: CLint estimates using human liver microsomes (Method 4)
Format: in vitro ADME
Settings: pH 7.4, 1 μM compound, read-out: Mics - CLint (HLM CLint)
Overview of reported microsomal CLint at 1 μM across a group of molecules:

>  <MOLECULE>
CN1CN(c2c(Cl)cccc2Cl)C(=O)c2cnc(Nc3ccc(N4CCN(C)[C@@H](CO)C4)cc3)nc21 [Example 34]

>  <microsomal CLint at 1 μM>
15 to 50 µL/min/mg

$$$$
>  <MOLECULE>
COCc1cc(Nc2ncc3c(n2)N(C)CN(c2c(Cl)cccc2Cl)C3=O)ccc1N1CCNCC1 [Example 31]

>  <microsomal CLint at 1 μM>
≤ 15 µL/min/mg

$$$$
>  <MOLECULE>
CC(=O)N1CCN(c2ccc(Nc3ncc4c(n3)N(C)CN(c3c(Cl)cccc3Cl)C4=O)cc2CN2CCCC2)CC1 [Example 138]

>  <microsomal CLint at 1 μM>
≤ 15 µL/min/mg

$$$$
>  <MOLECULE>
CN(C)CC(=O)N1CCN(c2ccc(Nc3ncc4c(n3)N(C)CN(c3c(Cl)cccc3Cl)C4=O)cc2CO)CC1 [Example 161]

>  <microsomal CLint at 1 μM>
15 to 50 µL/min/mg

$$$$
>  <MOLECULE>
CN1CN(c2c(Cl)cccc2Cl)C(=O)c2cnc(Nc3ccc(N4CCNCC4)c(CNCC(F)(F)F)c3)nc21 [Example 141]

>  <microsomal CLint at 1 μM>
≤ 15 µL/min/mg

$$$$
>  <MOLECULE>
CN1CN(c2c(Cl)cccc2Cl)C(=O)c2cnc(Nc3ccc(N4CCNCC4)c(C#N)c3)nc21 [Example 11]

>  <microsomal CLint at 1 μM>
≤ 15 µL/min/mg

$$$$
>  <MOLECULE>
CN1CN(c2c(Cl)cccc2Cl)C(=O)c2cnc(Nc3ccc(N4C[C@@H]5C[C@H]4CN5)cc3)nc21 [Example 39]

>  <microsomal CLint at 1 μM>
≤ 15 µL/min/mg

$$$$
>  <MOLECULE>
Cc1cc(Nc2ncc3c(n2)N(C)CN(c2c(Cl)cccc2Cl)C3=O)ccc1N1C[C@@H]2C[C@H]1CN2C [Example 77]

>  <microsomal CLint at 1 μM>
15 to 50 µL/min/mg

$$$$

###

Overview of reported microsomal CLint at 1 μM across a group of molecules:
Experiment: CLint estimates using human liver microsomes (Method 4)
Type: in vitro ADME
Details: pH 7.4, 1 μM compound, read-out: Mics - CLint (HLM CLint)

>  <MOLECULE>
CC(=O)N1CCN(c2ccc(Nc3ncc4c(n3)N(C)CN(c3c(Cl)cccc3Cl)C4=O)cc2CN(C)C)CC1 [Example 144]

>  <microsomal CLint at 1 μM>
15 to 50 µL/min/mg

$$$$
>  <MOLECULE>
CNCc1cc(Nc2ncc3c(n2)N(C)CN(c2c(Cl)cccc2Cl)C3=O)ccc1N1CCOCC1 [Example 5]

>  <microsomal CLint at 1 μM>
≤ 15 µL/min/mg

$$$$
>  <MOLECULE>
CN1CCC(Oc2ccc(Nc3ncc4c(n3)N(C)CN(c3c(Cl)cccc3Cl)C4=O)cc2)CC1 [Example 90]

>  <microsomal CLint at 1 μM>
15 to 50 µL/min/mg

$$$$
>  <MOLECULE>
Cc1cc(Nc2ncc3c(n2)N(C)CN(c2c(Cl)cccc2Cl)C3=O)ccc1N1C[C@H]2C[C@@H]1CN2C [Example 121]

>  <microsomal CLint at 1 μM>
15 to 50 µL/min/mg

$$$$
>  <MOLECULE>
COc1cc(Nc2ncc3c(n2)N(C)CN(c2c(Cl)cccc2Cl)C3=O)ccc1N1C[C@@H]2C[C@H]1CN2C [Example 84]

>  <microsomal CLint at 1 μM>
15 to 50 µL/min/mg

$$$$
>  <MOLECULE>
C[C@@H]1CN(c2ccc(Nc3ncc4c(n3)N(C)CN(c3ccccc3Cl)C4=O)cc2)[C@@H](C)CN1 [Example 111]

>  <microsomal CLint at 1 μM>
≤ 15 µL/min/mg

$$$$
>  <MOLECULE>
CCN1CN(c2c(Cl)cccc2Cl)C(=O)c2cnc(Nc3ccc(N4CCNCC4)cc3)nc21 [Example 169]

>  <microsomal CLint at 1 μM>
≤ 15 µL/min/mg

$$$$
>  <MOLECULE>
COCc1cc(Nc2ncc3c(n2)N(C)CN(c2c(Cl)cccc2Cl)C3=O)ccc1N1CCN[C@H](C)C1 [Example 59]

>  <microsomal CLint at 1 μM>
≤ 15 µL/min/mg

$$$$
>  <MOLECULE>
Cc1cc(Nc2ncc3c(n2)N(C)CN(c2c(Cl)cccc2Cl)C3=O)ccc1C1CCNCC1 [Example 18]

>  <microsomal CLint at 1 μM>
≤ 15 µL/min/mg

$$$$
>  <MOLECULE>
C[C@@H]1CN(c2ccc(Nc3ncc4c(n3)N(C)CN(c3c(Cl)cccc3Cl)C4=O)cc2)C[C@H](C)N1 [Example 83]

>  <microsomal CLint at 1 μM>
15 to 50 µL/min/mg

$$$$
>  <MOLECULE>
CN1CN(c2c(Cl)cccc2Cl)C(=O)c2cnc(Nc3ccc(N4CC5CCC(C4)N5C)cc3)nc21 [Example 88]

>  <microsomal CLint at 1 μM>
15 to 50 µL/min/mg

$$$$
>  <MOLECULE>
CNCc1cc(Nc2ncc3c(n2)N(C)CN(c2c(Cl)cccc2Cl)C3=O)ccc1N1CCCCC1 [Example 136]

>  <microsomal CLint at 1 μM>
≥ 50 µL/min/mg

$$$$
>  <MOLECULE>
CNCc1cc(Nc2ncc3c(n2)N(C)CN(c2c(Cl)cccc2Cl)C3=O)ccc1N1CCCC1 [Example 137]

>  <microsomal CLint at 1 μM>
≥ 50 µL/min/mg

$$$$

###

Overview of reported IC50 across a group of compounds:
Target: Wee-1 kinase (Homo sapiens)
Sequence (P30291 whole entry): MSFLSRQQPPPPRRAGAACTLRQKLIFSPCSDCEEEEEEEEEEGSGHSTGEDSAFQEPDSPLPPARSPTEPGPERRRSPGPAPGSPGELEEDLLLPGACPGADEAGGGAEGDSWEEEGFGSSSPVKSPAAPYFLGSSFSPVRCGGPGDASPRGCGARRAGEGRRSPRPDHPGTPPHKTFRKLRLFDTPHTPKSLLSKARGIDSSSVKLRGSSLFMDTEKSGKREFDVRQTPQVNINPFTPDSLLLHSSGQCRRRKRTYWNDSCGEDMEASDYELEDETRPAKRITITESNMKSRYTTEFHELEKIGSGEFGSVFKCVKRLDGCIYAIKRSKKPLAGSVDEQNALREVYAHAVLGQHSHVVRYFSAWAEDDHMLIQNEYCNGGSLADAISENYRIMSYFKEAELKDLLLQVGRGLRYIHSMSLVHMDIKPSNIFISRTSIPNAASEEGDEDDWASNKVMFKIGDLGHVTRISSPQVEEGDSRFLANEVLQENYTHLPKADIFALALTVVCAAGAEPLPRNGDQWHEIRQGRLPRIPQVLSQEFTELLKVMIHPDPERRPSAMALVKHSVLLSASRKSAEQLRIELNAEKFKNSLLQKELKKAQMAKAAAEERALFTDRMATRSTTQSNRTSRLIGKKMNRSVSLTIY

>  <COMPOUND>
CNCc1cc(Nc2ncc3c(n2)N(C)CN(c2c(Cl)cccc2Cl)C3=O)ccc1OC

>  <MEASUREMENT_TARGET>
Wee-1 kinase (Homo sapiens)

>  <IC50>
10 to 100 nM

$$$$
>  <COMPOUND>
C[C@@H]1CN(c2ccc(Nc3ncc4c(n3)N(C3CC3)CN(c3c(Cl)cccc3Cl)C4=O)cc2)CCN1

>  <MEASUREMENT_TARGET>
Wee-1 kinase (Homo sapiens)

>  <IC50>
10 to 100 nM

$$$$
>  <COMPOUND>
COC[C@H]1CN(c2ccc(Nc3ncc4c(n3)N(C)CN(c3c(Cl)cccc3Cl)C4=O)cc2C(O)C(F)F)CCN1 (single isomer, unassigned)

>  <MEASUREMENT_TARGET>
Wee-1 kinase (Homo sapiens)

>  <IC50>
≤ 10 nM

$$$$
